# system-tested: T1, Cyk3, Q07533
# T1 sequence (Q07533 1-83, looked up): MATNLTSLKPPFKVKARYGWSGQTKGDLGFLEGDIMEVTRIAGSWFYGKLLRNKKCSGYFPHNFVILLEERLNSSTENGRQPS
# protocol-notes: SPOT array
# recorded-conditions: median of control spots 1451
Criterion: SPOT intensity strictly less than 1. Met: TRUE. Not met: FALSE.

A selection of reference data follows.
HHKRRPTTIDVPGLT
TRUE
NPNRRAPRRPLSTQH
FALSE
AGKRRLPLVRFKASD
FALSE

[ask] Hello, is SPOT intensity of the following binder strictly smaller than 1? "AKDLIVPRRPEWNEG"
[reply] FALSE

[ask] Also check "VPPVPLPFGIPPFPM"
[reply] FALSE

[ask] Also check "NNFYRPLLRSVLVLL"
[reply] FALSE

[ask] Also check "NNNKMRPHLPPLSSG"
[reply] TRUE

[ask] Also check "FSRRQSMDIPSKNRN"
[reply] TRUE

[ask] Also check "EAEEAAPQLPSRSSA"
[reply] TRUE

[ask] Also check "HRRRRVFSIPSLKSI"
[reply] FALSE

[ask] Also check "LTRRFPFLFPFDTRM"
[reply] FALSE

[ask] Also check "RRGPAPPPPPRASRP"
[reply] TRUE

[ask] Also check "TYNRTAFQIPGDQSI"
[reply] TRUE

[ask] Also check "ATNVPVAPPPPPASL"
[reply] TRUE

[ask] Also check "VPVAPPPPPASLGQS"
[reply] TRUE
